Target: BLVRB (Homo sapiens, UniProt P30043)
Sequence (P30043 1-206): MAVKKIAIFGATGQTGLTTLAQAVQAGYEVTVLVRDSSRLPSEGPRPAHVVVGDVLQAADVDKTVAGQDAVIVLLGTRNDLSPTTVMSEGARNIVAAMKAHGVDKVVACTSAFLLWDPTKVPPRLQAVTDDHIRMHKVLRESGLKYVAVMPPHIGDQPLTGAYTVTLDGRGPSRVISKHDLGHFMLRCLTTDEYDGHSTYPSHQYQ
Assay: Isothermal titration calorimetry (ITC) of compound binding to BLVRB
Conditions: 25 °C
Exercise: state measured TΔS for each of the compounds provided.
Reply with just the number (in kcal/mol).

For Cc1nc(-c2ccc(OCC(C)C)c(C#N)c2)sc1C(=O)O the compound record lists TΔS as 2.14

For O=C(O)c1cc(/N=N/c2ccc(S(=O)(=O)Nc3ccccn3)cc2)ccc1O the compound record lists TΔS as -0.76

For O=C(O)c1cccc(-c2noc(-c3ccccc3F)n2)c1 the compound record lists TΔS as -1.83

For CC1(C)CCC(C)(C)c2cc(NC(=O)c3ccc(C(=O)O)cc3)ccc21 the compound record lists TΔS as 3.50

For O=C(O)c1ccc(-n2nc(-c3ccccc3O)nc2-c2ccccc2O)cc1 the compound record lists TΔS as 0.55

The origin of these recorded values is patent US11744839B2.
